- System: high-fat diet-induced obese mice
- protocol-summary: Body weight, organ weight and adipose tissue weight of high-fat diet-induced obese mice
- Format: in vivo, C57BL/6J mice
- assay-context: HFD+5% w/w in diet, 16 weeks
quantity-measured: Organ weights: Liver (g/100 g Bodyweight)
One number for each entry, in g/100 g Bodyweight.

Worked examples follow.
chemical-string: O=C[C@H](O)[C@@H](O)[C@H](O)[C@H](O)CO
quantity-measured: Organ weights: Liver
reported-result: 5.22
--
chemical-string: O=C(CO)[C@H](O)[C@H](O)[C@H](O)CO
quantity-measured: Organ weights: Liver
reported-result: 4.35
--
chemical-string: O=C(CO)[C@@H](O)[C@H](O)[C@H](O)CO
quantity-measured: Organ weights: Liver
reported-result: 5.68

Could you now look at the following compound, please?
# Organ weights: Liver lookup, item OC[C@@H](O)[C@@H](O)CO
5.37
